The measured values listed here are drawn from PubChem BioAssay (NCI).

Listed here are compounds together with their documented GI50.
System: MOLT-4 leukemia
Test: NCI tumour cell line growth inhibition, 48 h

NC(=S)N/N=C1\c2cc(Cl)ccc2-c2c1cc(Cl)cc2[N+](=O)[O-] | 3.21 µM
CCCCCCOc1ccc(/C=N/Nc2cc(C)nc3ccc(Cl)cc23)cc1 | 1.85 µM
COC(=O)[C@]12CC[C@@H](C)[C@H](C)[C@@H]1C1=CC[C@@H]3[C@@]4(C)C[C@@H](O)[C@H](O)[C@@](C)(CO)[C@@H]4[C@H](O)C[C@@]3(C)[C@]1(C)CC2 | 4.58 µM

Now consider a different compound.
Incoming: What value of measured GI50 is listed for c1ccc(-c2n(Cc3ccc4ccccc4n3)cc[n+]2Cc2ccc3ccccc3c2)cc1 ?
Outgoing: 1.64 µM
